Listed below: Ki (10^6 M^−1) values for each entry.
Target: E. coli β clamp (Escherichia coli, UniProt P0A988)
Construct: made in house; host or cells: E. coli BL21 (β); P1 by solid-phase synthesis
Experiment: SPR competition assay: inhibition of P1-β interaction by challenging peptides
Assay type: binding
Details: SPR; Ki = (1 + KA[β])/IC50
Square brackets hold non-standard residues; d marks the D form. Peptide text beside a SMILES is read from it. Phe(4-Cl) = N[C@@H](Cc1ccc(Cl)cc1)C(=O)O; hCha = N[C@@H](CCC1CCCCC1)C(=O)O; tBuAla = CC(C)(C)C[C@H](N)C(=O)O; Cha = N[C@@H](CC1CCCCC1)C(=O)O

Solved cases below.
CC(=O)N[C@@H](CCC(N)=O)C(=O)N[C@@H](CC(C)(C)C)C(=O)N[C@@H](CC(=O)O)C(=O)N[C@@H](CC(C)C)C(=O)N[C@@H](Cc1ccccc1)C(=O)O [Peptide P10, Ac-Gln-NptGly-Asp-Leu-Phe-OH] (Ac-Q[tBuAla]DLF-OH)
1.36 10^6 M^−1
CC(=O)N[C@@H](CCC(N)=O)C(=O)N[C@@H](CC1CCCCC1)C(=O)N[C@@H](CC(=O)O)C(=O)N[C@@H](CC(C)C)C(=O)N[C@@H](Cc1ccc(Cl)cc1)C(=O)O [Peptide P12, Ac-Gln-Cha-Asp-Leu-pClPhe-OH] (Ac-Q[Cha]DL[Phe(4-Cl)]-OH)
13.7 10^6 M^−1

Asked: What measured Ki (10^6 M^−1) goes with CC(=O)N[C@@H](CCC(N)=O)C(=O)N[C@@H](CC1CCCCC1)C(=O)N[C@@H](CC(=O)O)C(=O)N[C@@H](CC(C)C)C(=O)N[C@@H](Cc1ccccc1)C(=O)O [Peptide P7, Ac-Gln-Cha-Asp-Leu-Phe-OH] (Ac-Q[Cha]DLF-OH) ?
Given back: 8.01 10^6 M^−1

Asked: What measured Ki (10^6 M^−1) goes with CC(=O)N[C@@H](CCC(N)=O)C(=O)N[C@@H](CCC1CCCCC1)C(=O)N[C@@H](CC(=O)O)C(=O)N[C@@H](CC(C)C)C(=O)N[C@@H](Cc1ccccc1)C(=O)O [Peptide P8, Ac-Gln-hCha-Asp-Leu-Phe-OH] (Ac-Q[hCha]DLF-OH) ?
Given back: 16.4 10^6 M^−1

* * *

Biological target: β ring (Escherichia coli)
Construct: made in house; host or cells: E. coli BL21
Sequence (P0A988 whole entry): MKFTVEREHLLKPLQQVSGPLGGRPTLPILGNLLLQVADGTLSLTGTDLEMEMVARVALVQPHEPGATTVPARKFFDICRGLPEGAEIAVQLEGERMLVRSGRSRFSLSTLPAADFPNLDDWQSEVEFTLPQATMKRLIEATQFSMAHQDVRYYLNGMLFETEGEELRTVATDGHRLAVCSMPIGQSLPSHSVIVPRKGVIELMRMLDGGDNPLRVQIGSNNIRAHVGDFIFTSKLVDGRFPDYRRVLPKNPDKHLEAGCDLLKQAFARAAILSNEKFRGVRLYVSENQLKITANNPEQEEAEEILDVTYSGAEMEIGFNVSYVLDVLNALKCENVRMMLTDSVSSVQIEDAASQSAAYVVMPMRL
Assay: Isothermal titration calorimetry (ITC) of peptides into β ring solution
Assay type: binding, E. coli
Details: affinity (ITC), ITC
measurement_kind: Kd

Asked: What measured Kd goes with H-RQLVLGL-OH [Peptide P1, H-Arg-Gln-Leu-Val-Leu-Gly-Leu-OH, reference compound] ?
Given back: 1 to 2 µM

* * *

Biological target: E. coli β clamp (Escherichia coli, UniProt P0A988)
Construct: made in house; host or cells: E. coli BL21 (β); P1 by solid-phase synthesis
Assay: SPR competition assay: inhibition of P1-β interaction by challenging peptides;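 note: SPR responses corrected for background, then fitted with a 1:1 Langmuir binding model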
Format: binding
Details: SPR; Ki = (1 + KA[β])/IC50
Square brackets hold non-standard residues; d marks the D form. Peptide text beside a SMILES is read from it. Phe(3,4-Cl2) = N[C@@H](Cc1ccc(Cl)c(Cl)c1)C(=O)O; Phe(4-Br) = N[C@@H](Cc1ccc(Br)cc1)C(=O)O; Phe(4-Me) = Cc1ccc(C[C@H](N)C(=O)O)cc1; Cha = N[C@@H](CC1CCCCC1)C(=O)O
measurement_kind: Ki (10^6 M^−1)

Solved cases below.
CC(=O)N[C@@H](CCC(N)=O)C(=O)N[C@@H](CCC(C)C)C(=O)N[C@@H](CC(=O)O)C(=O)N[C@@H](CC(C)C)C(=O)N[C@@H](Cc1ccccc1)C(=O)O [Peptide P9, Ac-Gln-Hol-Asp-Leu-Phe-OH]
1.84 10^6 M^−1
CC(=O)N[C@@H](CCC(N)=O)C(=O)N[C@@H](CC1CCCCC1)C(=O)N[C@@H](CC(=O)O)C(=O)N[C@@H](CC(C)C)C(=O)N[C@@H](Cc1ccc(Br)cc1)C(=O)O [Peptide P13, Ac-Gln-Cha-Asp-Leu-pBrPhe-OH] (Ac-Q[Cha]DL[Phe(4-Br)]-OH)
13.49 10^6 M^−1

Asked: What measured Ki (10^6 M^−1) goes with CC(=O)N[C@@H](CCC(N)=O)C(=O)N[C@@H](CC1CCCCC1)C(=O)N[C@@H](CC(=O)O)C(=O)N[C@@H](CC(C)C)C(=O)N[C@@H](Cc1ccc(Cl)c(Cl)c1)C(=O)O [Peptide P14, Ac-Gln-Cha-Asp-Leu-(3,4-di-Cl)Phe-OH] (Ac-Q[Cha]DL[Phe(3,4-Cl2)]-OH) ?
Given back: 17 10^6 M^−1

Asked: What measured Ki (10^6 M^−1) goes with CC(=O)N[C@@H](CCC(N)=O)C(=O)N[C@@H](CC1CCCCC1)C(=O)N[C@@H](CC(=O)O)C(=O)N[C@@H](CC(C)C)C(=O)N[C@@H](Cc1ccc(C)cc1)C(=O)O [Peptide P11, Ac-Gln-Cha-Asp-Leu-pMePhe-OH] (Ac-Q[Cha]DL[Phe(4-Me)]-OH) ?
Given back: 8.43 10^6 M^−1
